# Test system: SCF-stimulated UT-7 cells
# CONDITION_DETAILS: Homo sapiens, UT7, 72 h, read-out: UT7 Proliferation cell assay data
pIC50: −log10 of the molar value.

- MOL_SMILES: "Cc1ccn(-c2ccc3c(c2)NCC3(C)C)c(=O)c1-c1ccc2nc(N)ncc2c1"
  pIC50: 7.71
- MOL_SMILES: "Cc1ccn(-c2ccc(C(C)(C)C)cc2)c(=O)c1-c1ccc2nc(N)ncc2c1"
  pIC50: 7.78
- MOL_SMILES: "Cc1ccn(-c2ccc(N3CCOCC3)cc2)c(=O)c1-c1ccc2nc(N)ncc2c1"
  pIC50: 7.14
- MOL_SMILES: "Cc1ccn(CCC2CCCC2)c(=O)c1-c1ccc2nc(N)ncc2c1"
  pIC50: 7.62
- MOL_SMILES: "CC(=O)N1CC(C)(C)c2ccc(-n3ccc(C)c(-c4ccc5nc(N)ncc5c4)c3=O)cc21"
  pIC50: 6.65
- MOL_SMILES: "Cc1cc(-n2ccc(C)c(-c3ccc4nc(N)ncc4c3)c2=O)ccc1F"
  pIC50: 7.74
- MOL_SMILES: "CCOC(=O)c1ccc(-n2ccc(C)c(-c3ccc4nc(N)ncc4c3)c2=O)cc1"
  pIC50: 7.18
- MOL_SMILES: "Cc1ccn(-c2ccc3[nH]c(C(F)(F)F)nc3c2)c(=O)c1-c1ccc2nc(N)ncc2c1"
  pIC50: 6.72
- MOL_SMILES: "COc1cc(-n2ccc(C)c(-c3ccc4nc(N)ncc4c3)c2=O)cc(C(F)(F)F)c1"
  pIC50: 7.23
- MOL_SMILES: "Cc1ccn(-c2ccc(Cl)cc2)c(=O)c1-c1ccc2nc(N)ncc2c1"
  pIC50: 7.85
- MOL_SMILES: "Cc1ccc(-n2ccc(C)c(-c3ccc4nc(N)ncc4c3)c2=O)cc1F"
  pIC50: 7.92
- MOL_SMILES: "Cc1ccn(CCC(C)(C)C)c(=O)c1-c1ccc2nc(N)ncc2c1"
  pIC50: 7.37
- MOL_SMILES: "CC(C)=CCn1ccc(C)c(-c2ccc3nc(N)ncc3c2)c1=O"
  pIC50: 7.92
- MOL_SMILES: "Cc1ccn(-c2ccc(F)cc2)c(=O)c1-c1ccc2nc(N)ncc2c1"
  pIC50: 6.97

---

# Test system: SCF-stimulated UT-7 cells
# CONDITION_DETAILS: Homo sapiens, UT7, 72 h, read-out: UT7 Proliferation cell assay data
OBSERVATION_TYPE: IC50 (nM)

- MOL_SMILES: "Cc1ccc(-n2ccc(C)c(-c3ccc4nc(N)ncc4c3)c2=O)cc1C"
  REPORTED_VALUE: 5.4
- MOL_SMILES: "Cc1ccn(-c2ccc(C(C)C)cc2)c(=O)c1-c1ccc2nc(N)ncc2c1"
  REPORTED_VALUE: 5
- MOL_SMILES: "Cc1ccn(-c2ccc(F)c(C(F)(F)F)c2)c(=O)c1-c1ccc2nc(N)ncc2c1"
  REPORTED_VALUE: 41
- MOL_SMILES: "Cc1ccn(-c2ccc(F)c(F)c2)c(=O)c1-c1ccc2nc(N)ncc2c1"
  REPORTED_VALUE: 63
- MOL_SMILES: "Cc1ccn(-c2ccc(F)c(Cl)c2)c(=O)c1-c1ccc2nc(N)ncc2c1"
  REPORTED_VALUE: 40
- MOL_SMILES: "Cc1ccn(-c2ccc(-n3cccn3)cc2)c(=O)c1-c1ccc2nc(N)ncc2c1"
  REPORTED_VALUE: 18
- MOL_SMILES: "Cc1cc(C)cc(-n2ccc(C)c(-c3ccc4nc(N)ncc4c3)c2=O)c1"
  REPORTED_VALUE: 50.1
- MOL_SMILES: "Cc1ccn(CCC(C)C)c(=O)c1-c1ccc2nc(N)ncc2c1"
  REPORTED_VALUE: 84
- MOL_SMILES: "Cc1ccn(CCCC(C)C)c(=O)c1-c1ccc2nc(N)ncc2c1"
  REPORTED_VALUE: 4
- MOL_SMILES: "Cc1ccn(-c2ccc3ncccc3c2)c(=O)c1-c1ccc2nc(N)ncc2c1"
  REPORTED_VALUE: 56.8
- MOL_SMILES: "Cc1ccn(-c2ccc3c(ccn3-c3ccc4[nH]ccc4c3)c2)c(=O)c1-c1ccc2nc(N)ncc2c1"
  REPORTED_VALUE: 11
- MOL_SMILES: "Cc1ccn(-c2cccc(C(F)(F)F)c2)c(=O)c1-c1ccc2nc(N)ncc2c1"
  REPORTED_VALUE: 27.9
- MOL_SMILES: "Cc1ccn(Cc2ccccc2)c(=O)c1-c1ccc2nc(N)ncc2c1"
  REPORTED_VALUE: 13
- MOL_SMILES: "Cc1ccn(-c2cc(Cl)cc(Cl)c2)c(=O)c1-c1ccc2nc(N)ncc2c1"
  REPORTED_VALUE: 35
- MOL_SMILES: "Cc1ccn(CCC2CC2)c(=O)c1-c1ccc2nc(N)ncc2c1"
  REPORTED_VALUE: 28
- MOL_SMILES: "Cc1ccn(-c2ccc(Cl)c(Cl)c2)c(=O)c1-c1ccc2nc(N)ncc2c1"
  REPORTED_VALUE: 18
- MOL_SMILES: "Cc1ccn(-c2ccc3[nH]ccc3c2)c(=O)c1-c1ccc2nc(N)ncc2c1"
  REPORTED_VALUE: 28.8
- MOL_SMILES: "Cc1ccn(-c2ccc(CN3CCOCC3)cc2)c(=O)c1-c1ccc2nc(N)ncc2c1"
  REPORTED_VALUE: 200

---

# TGT: c-kit kinase enzyme (Homo sapiens)
# Construct: (catalytic domain, N-terminal GST tagged, unphosphorylated)
# ASSAY_SUMMARY: C-kit Homogeneous Time Resolved Fluorescent (HTRF) kinase assay
# Assay type: biochemical
# CONDITION_DETAILS: HTRF Fret enzyme assay data, c-kit catalytic domain, biotinylated Her-2 peptide substrate, ATP
pIC50: −log10 of the molar value.

- MOL_SMILES: "Cc1ccn(-c2ccc(Cl)c(Cl)c2)c(=O)c1-c1ccc2nc(N)ncc2c1"
  pIC50: 7.70
- MOL_SMILES: "Cc1ccn(CCn2cccn2)c(=O)c1-c1ccc2nc(N)ncc2c1"
  pIC50: 6.75
- MOL_SMILES: "Cc1ccn(-c2ccc(F)c(Cl)c2)c(=O)c1-c1ccc2nc(N)ncc2c1"
  pIC50: 7.00
- MOL_SMILES: "CC(=O)N1CC(C)(C)c2ccc(-n3ccc(C)c(-c4ccc5nc(N)ncc5c4)c3=O)cc21"
  pIC50: 8.01

---

# TGT: c-kit kinase enzyme (Homo sapiens, UniProt P10721)
# Construct: (catalytic domain, N-terminal GST tagged, unphosphorylated)
# Sequence (P10721 589-937 limits assumed): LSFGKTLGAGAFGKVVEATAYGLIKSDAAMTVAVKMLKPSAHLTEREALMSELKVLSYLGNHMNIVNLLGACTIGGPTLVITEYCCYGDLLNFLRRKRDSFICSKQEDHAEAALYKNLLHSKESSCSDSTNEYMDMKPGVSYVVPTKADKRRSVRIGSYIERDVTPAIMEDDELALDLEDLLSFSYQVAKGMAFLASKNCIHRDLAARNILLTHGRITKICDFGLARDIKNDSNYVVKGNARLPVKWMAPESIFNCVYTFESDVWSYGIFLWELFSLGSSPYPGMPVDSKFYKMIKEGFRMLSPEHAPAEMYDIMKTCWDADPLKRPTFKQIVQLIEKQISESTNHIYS
# ASSAY_SUMMARY: C-kit Homogeneous Time Resolved Fluorescent (HTRF) kinase assay
# Type: biochemical
# CONDITION_DETAILS: HTRF Fret enzyme assay data, c-kit catalytic domain, biotinylated Her-2 peptide substrate, ATP
pIC50: −log10 of the molar value.
pIC50 values for the compounds below.
OBSERVATION_TYPE: pIC50

- COMPOUND: "Cc1ccn(-c2ccc(C(C)C)cc2)c(=O)c1-c1ccc2nc(N)ncc2c1"
  REPORTED_VALUE: 8.70
- COMPOUND: "CC(C)=CCn1ccc(C)c(-c2ccc3nc(N)ncc3c2)c1=O"
  REPORTED_VALUE: 7.62
- COMPOUND: "Cc1ccc(-n2ccc(C)c(-c3ccc4nc(N)ncc4c3)c2=O)cc1Cl"
  REPORTED_VALUE: 8.09
- COMPOUND: "Cc1ccn(-c2ccc3[nH]ccc3c2)c(=O)c1-c1ccc2nc(N)ncc2c1"
  REPORTED_VALUE: 8.06
- COMPOUND: "CCCn1ccc(C)c(-c2ccc3nc(N)ncc3c2)c1=O"
  REPORTED_VALUE: 6.50
- COMPOUND: "Cc1ccn(-c2ccc3[nH]c(C(F)(F)F)nc3c2)c(=O)c1-c1ccc2nc(N)ncc2c1"
  REPORTED_VALUE: 7.46
- COMPOUND: "Cc1ccn(-c2cc(Cl)cc(Cl)c2)c(=O)c1-c1ccc2nc(N)ncc2c1"
  REPORTED_VALUE: 7.36
- COMPOUND: "CCCCn1ccc(C)c(-c2ccc3nc(N)ncc3c2)c1=O"
  REPORTED_VALUE: 6.93
- COMPOUND: "Cc1ccn(CCC(C)(C)C)c(=O)c1-c1ccc2nc(N)ncc2c1"
  REPORTED_VALUE: 7.79
- COMPOUND: "Cc1ccn(-c2ccc3c(ccn3-c3ccc4[nH]ccc4c3)c2)c(=O)c1-c1ccc2nc(N)ncc2c1"
  REPORTED_VALUE: 8.70
- COMPOUND: "Cc1ccn(-c2ccc(N3CCN(C(=O)OC(C)(C)C)CC3)cc2)c(=O)c1-c1ccc2nc(N)ncc2c1"
  REPORTED_VALUE: 5.86
- COMPOUND: "Cc1ccn(-c2ccc(F)c(F)c2)c(=O)c1-c1ccc2nc(N)ncc2c1"
  REPORTED_VALUE: 7.32
- COMPOUND: "Cc1ccn(-c2ccc(C(F)(F)F)cc2)c(=O)c1-c1ccc2nc(N)ncc2c1"
  REPORTED_VALUE: 8.10
- COMPOUND: "COCCn1ccc(C)c(-c2ccc3nc(N)ncc3c2)c1=O"
  REPORTED_VALUE: 5.65
- COMPOUND: "Cc1ccn(-c2cccc(C#N)c2)c(=O)c1-c1ccc2nc(N)ncc2c1"
  REPORTED_VALUE: 7.05
- COMPOUND: "Cc1ccn(-c2ccc(F)c(C(F)(F)F)c2)c(=O)c1-c1ccc2nc(N)ncc2c1"
  REPORTED_VALUE: 7.67
- COMPOUND: "CCOC(=O)CNc1ccc(-n2ccc(C)c(-c3ccc4nc(N)ncc4c3)c2=O)cc1"
  REPORTED_VALUE: 6.74
- COMPOUND: "Cc1ccn(CC2CCCCC2)c(=O)c1-c1ccc2nc(N)ncc2c1"
  REPORTED_VALUE: 6.88
- COMPOUND: "COc1cc(-n2ccc(C)c(-c3ccc4nc(N)ncc4c3)c2=O)cc(C(F)(F)F)c1"
  REPORTED_VALUE: 7.95
- COMPOUND: "Cc1ccn(-c2cccc(OC(F)(F)F)c2)c(=O)c1-c1ccc2nc(N)ncc2c1"
  REPORTED_VALUE: 8.39
- COMPOUND: "Cc1ccn(CCN(C)C)c(=O)c1-c1ccc2nc(N)ncc2c1"
  REPORTED_VALUE: 5.80
- COMPOUND: "Cc1ccn(-c2ccc(CN3CCOCC3)cc2)c(=O)c1-c1ccc2nc(N)ncc2c1"
  REPORTED_VALUE: 7.51
- COMPOUND: "COC(=O)Cn1ccc(C)c(-c2ccc3nc(N)ncc3c2)c1=O"
  REPORTED_VALUE: 5.92
- COMPOUND: "Cc1ccn(-c2ccc(-c3ncco3)cc2)c(=O)c1-c1ccc2nc(N)ncc2c1"
  REPORTED_VALUE: 7.67
- COMPOUND: "Cc1ccn(Cc2ccccc2)c(=O)c1-c1ccc2nc(N)ncc2c1"
  REPORTED_VALUE: 8.22
- COMPOUND: "Cc1ccn(CC2CCC2)c(=O)c1-c1ccc2nc(N)ncc2c1"
  REPORTED_VALUE: 5.85
- COMPOUND: "Cc1ccn(CCC(C)C)c(=O)c1-c1ccc2nc(N)ncc2c1"
  REPORTED_VALUE: 7.74
- COMPOUND: "Cc1ccn(CC(C)C)c(=O)c1-c1ccc2nc(N)ncc2c1"
  REPORTED_VALUE: 5.65
- COMPOUND: "Cc1ccc(-n2ccc(C)c(-c3ccc4nc(N)ncc4c3)c2=O)cc1C"
  REPORTED_VALUE: 8.44
- COMPOUND: "Cc1ccn(CCC2CCCC2)c(=O)c1-c1ccc2nc(N)ncc2c1"
  REPORTED_VALUE: 9.09
- COMPOUND: "Cc1cc(C)cc(-n2ccc(C)c(-c3ccc4nc(N)ncc4c3)c2=O)c1"
  REPORTED_VALUE: 7.79
- COMPOUND: "Cc1ccn(CCC2CC2)c(=O)c1-c1ccc2nc(N)ncc2c1"
  REPORTED_VALUE: 7.10
- COMPOUND: "CCC(C)CCn1ccc(C)c(-c2ccc3nc(N)ncc3c2)c1=O (stereo not drawn)"
  REPORTED_VALUE: 8.60
- COMPOUND: "Cc1ccn(-c2ccc(-n3cccc3)cc2)c(=O)c1-c1ccc2nc(N)ncc2c1"
  REPORTED_VALUE: 8.65
- COMPOUND: "Cc1ccn(-c2ccc(F)cc2)c(=O)c1-c1ccc2nc(N)ncc2c1"
  REPORTED_VALUE: 7.20
- COMPOUND: "Cc1ccn(-c2ccc3c(c2)NCC3(C)C)c(=O)c1-c1ccc2nc(N)ncc2c1"
  REPORTED_VALUE: 8.33
